tested on: Pieris brassicae; assay: Antifeedant activity against Pieris brassicae third-instar larvae reared on compound pre-treated Brassica oleracea L. leaf disks assessed antifeeding rate at 1000 ppm measured after 48 hr by conventional leaf disk method; assay type: functional
Experimental Endpoint: AFI (%)
The response must be a number in % with no trailing unit.

stdin: Note AFI for the compound shown: C=C1[C@@H]2[C@@H](OC(=O)C=C[C@@]2(C)[C@H]2CC(=O)OC2(C)C)[C@H](OC(C)=O)[C@@]2(C)[C@H](C3=CC(=O)OC3O)C[C@H]3O[C@]132 (some centres undefined)
stdout: 20.9

Further cases:
stdin: Indicate its recorded AFI; the compound in question is C=C1[C@@H]2[C@@H](OC(=O)C=C[C@@]2(C)[C@H]2CC(=O)OC2(C)C)[C@H](OC(C)=O)[C@@]2(C)[C@H](C3=CCNC3=O)C[C@H]3O[C@]132
stdout: 28

stdin: Given C=C1[C@@H]2[C@@H](OC(=O)C=C[C@@]2(C)[C@H]2CC(=O)OC2(C)C)[C@H](OC(C)=O)[C@@]2(C)[C@H](C3=CCOC3=O)C[C@H]3O[C@]132 , respond with its AFI.
stdout: 31

stdin: Indicate the recorded AFI value for this compound: C/C=C(\C)C(=O)O[C@H]1C[C@@H](OC(C)=O)[C@@]2(C(=O)OC)CO[C@H]3[C@@H](O)[C@@](C)([C@]45O[C@@]4(C)[C@@H]4C[C@H]5O[C@@H]5OC=C[C@@]54O)[C@H]4[C@]1(CO[C@]4(O)C(=O)OC)[C@@H]32
stdout: 99.5
